- measured-target: ATP-dependent translocase ABCB1 (Homo sapiens, UniProt P08183)
- Sequence (P08183 whole entry): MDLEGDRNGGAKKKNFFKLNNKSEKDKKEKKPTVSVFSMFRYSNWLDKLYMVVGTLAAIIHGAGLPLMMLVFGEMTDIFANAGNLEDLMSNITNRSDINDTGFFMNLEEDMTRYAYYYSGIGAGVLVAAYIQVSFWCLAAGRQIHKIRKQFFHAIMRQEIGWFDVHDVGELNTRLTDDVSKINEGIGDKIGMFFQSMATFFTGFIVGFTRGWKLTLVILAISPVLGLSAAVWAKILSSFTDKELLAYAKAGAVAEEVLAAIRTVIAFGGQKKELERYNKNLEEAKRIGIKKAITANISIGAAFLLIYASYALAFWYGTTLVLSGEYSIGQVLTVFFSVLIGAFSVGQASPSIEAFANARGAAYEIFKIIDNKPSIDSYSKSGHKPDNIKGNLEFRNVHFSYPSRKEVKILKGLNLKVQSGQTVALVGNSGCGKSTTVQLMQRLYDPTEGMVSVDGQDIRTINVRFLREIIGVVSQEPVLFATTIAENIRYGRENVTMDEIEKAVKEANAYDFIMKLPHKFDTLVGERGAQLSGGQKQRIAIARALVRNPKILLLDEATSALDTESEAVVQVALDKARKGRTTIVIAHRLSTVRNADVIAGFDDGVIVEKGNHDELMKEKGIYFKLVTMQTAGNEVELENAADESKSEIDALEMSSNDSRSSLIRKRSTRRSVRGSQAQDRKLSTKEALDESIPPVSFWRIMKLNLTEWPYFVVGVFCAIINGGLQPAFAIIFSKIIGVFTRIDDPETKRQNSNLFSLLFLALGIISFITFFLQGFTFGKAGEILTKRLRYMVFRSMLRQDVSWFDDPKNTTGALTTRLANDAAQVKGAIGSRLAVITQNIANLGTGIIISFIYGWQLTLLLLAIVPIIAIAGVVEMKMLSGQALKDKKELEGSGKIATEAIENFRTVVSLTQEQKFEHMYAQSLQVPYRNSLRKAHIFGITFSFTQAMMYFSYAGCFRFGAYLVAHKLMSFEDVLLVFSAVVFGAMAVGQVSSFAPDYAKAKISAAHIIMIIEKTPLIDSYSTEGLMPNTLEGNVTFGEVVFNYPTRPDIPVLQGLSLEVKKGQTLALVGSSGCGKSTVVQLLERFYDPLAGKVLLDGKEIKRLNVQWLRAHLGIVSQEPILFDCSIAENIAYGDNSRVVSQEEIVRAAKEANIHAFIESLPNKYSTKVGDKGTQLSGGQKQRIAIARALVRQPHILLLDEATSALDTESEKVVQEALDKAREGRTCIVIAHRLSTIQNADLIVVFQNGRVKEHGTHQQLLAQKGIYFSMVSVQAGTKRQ
- assay-comment: Inhibition of P-glycoprotein expressed in MDR CCRF vcr1000 cells by daunorubicin efflux assay
Label class 1 when EC50 is strictly below 500 nM; otherwise label class 0.

CC(=O)c1cccc(OCC(O)CN2CCN(c3ccccc3C)CC2)c1 (stereo not drawn)	class 0
CC(C)N(CC(O)COc1ccc(O)cc1C(=O)CCc1ccccc1)C(C)C (stereo not drawn)	class 0
O=C1CC(CN2CCCCC2)Oc2ccccc21 (stereo not drawn)	class 0
COc1cccc(N2CCN(CC(O)COc3ccccc3C(=O)CCc3ccccc3)CC2)c1 (stereo not drawn)	class 0
CC(=O)c1ccccc1OCC(O)CN1CCC(O)(c2ccccc2)CC1 (stereo not drawn)	class 0
O=C(c1ccccc1)c1ccccc1OCC(O)CN1CCN(c2ccc(F)cc2)CC1 (stereo not drawn)	class 1
CC(=O)c1ccccc1OCC(O)CN1CCC(Cc2ccccc2)CC1 (stereo not drawn)	class 1
c1ccc(CCC2c3ccccc3OC2CN2CCCCC2)cc1 (stereo not drawn)	class 0
CC(C)OC(CCc1ccccc1)c1ccccc1OCC(O)CN1CCCCC1 (stereo not drawn)	class 1
O=C(CCc1ccccc1)c1cccc(OCC(O)CN2CCN(c3ccc(F)cc3)CC2)c1 (stereo not drawn)	class 0

In the record for CCN(CC)CC(O)COc1ccccc1C(=O)c1ccccc1 (stereo not drawn) , is EC50 less than 500 nM?
class 0

In the record for CCC(=O)c1ccccc1OCC(O)CN1CCOCC1 (stereo not drawn) , is EC50 less than 500 nM?
class 0

In the record for CC(=O)c1ccccc1OCC(O)CN1CCOCC1 (stereo not drawn) , is EC50 less than 500 nM?
class 0

In the record for CC(C)N(CC(O)COc1ccccc1C(=O)CCc1ccccc1)C(C)C (stereo not drawn) , is EC50 less than 500 nM?
class 1

In the record for O=C(CCc1ccccc1)c1ccccc1OCC(O)CNc1ccccc1 (stereo not drawn) , is EC50 less than 500 nM?
class 0

In the record for O=C1c2cccc(OCC(O)CN3CCCCC3)c2CC1Cc1ccccc1 (stereo not drawn) , is EC50 less than 500 nM?
class 1

In the record for COc1ccc(C(=O)CCc2ccccc2)c(OCC(O)CN2CCN(c3ccccc3C)CC2)c1 (stereo not drawn) , is EC50 less than 500 nM?
class 1

In the record for O=C(CCc1ccccc1)c1ccccc1OCC(O)CNC(c1ccccc1)C1CCCCC1 (stereo not drawn) , is EC50 less than 500 nM?
class 1

In the record for O=C(CCc1ccccc1)c1ccc(OCC(O)CN2CCCCC2)cc1 (stereo not drawn) , is EC50 less than 500 nM?
class 0

In the record for O=C(CCc1ccccc1)c1ccccc1OCC(O)CN1CCN(Cc2ccccc2)CC1 (stereo not drawn) , is EC50 less than 500 nM?
class 0

* * *

- measured-target: ATP-dependent translocase ABCB1 (Homo sapiens)
- assay-comment: Inhibition of P-glycoprotein expressed in MDR CCRF vcr1000 cells by daunorubicin efflux assay
Can you tell me log10(EC50) for the items I'm about to list?
# log10 transformed; quantity=EC50; unit=nM

Some solved cases for reference:
CCCNCC(O)COc1ccc(OCc2ccccc2)cc1C(=O)CCc1ccccc1 (stereo not drawn)	2.04
COc1ccc(C2Nc3ccccc3C(=O)N2c2ccc(Oc3ccccc3)cc2)cc1 (stereo not drawn)	3.00

Need log10(EC50) for each of these compounds.
1. O=C(CCc1cccc2ccccc12)c1ccccc1OCC(O)CN1CCOCC1 (stereo not drawn)
2. Cc1ccc(-c2n[nH]c3c2C(c2ccc(N(C)C)cc2)C(C#N)=C(N)O3)cc1 (stereo not drawn)
3. COC(CCc1ccccc1)c1ccccc1OCC(O)CN1CCCCC1 (stereo not drawn)
4. O=C(CCc1ccccc1)c1ccccc1OCC(O)CN1CCN(c2ccccc2)CC1 (stereo not drawn)
5. Cc1ccccc1N1CCN(CC(O)COc2cccc(C(=O)CCc3ccccc3)c2)CC1 (stereo not drawn)
6. O=C(c1ccccc1)c1ccccc1OCC(O)CN1CCC(O)(c2ccccc2)CC1 (stereo not drawn)

2.86
3.49
2.24
2.79
1.87
2.49
